I'd be grateful if you could share measured activity at 6 µM for these entries.
# Test system: K562 cells, human proerythroblast cells
# Test Description: Hemoglobin production in K562 cells (fluorescence of the porphyrin ring)
# Assay type: cell-based
# Experimental Parameters: 144 h, test compound 6 μM, 3+3 days, non-stimulated state = 100%, read-out: production amount of hemoglobin, % of control (6 μM)
Give bare numbers, in %.

Reference set, count: 7
>>> measured_result("CC(=O)N1c2ccc(C(=O)O)cc2C(Nc2ccc(F)cc2)CC1C (centres unmarked) [Compound 100]")
105
>>> measured_result("CC(=O)N1c2ccccc2[C@H](Oc2ccc(F)cc2)C[C@@H]1C (relative stereo) [Compound 27]")
281
>>> measured_result("CC(=O)N1c2ccccc2C(Nc2ccc(OC(C)C)cc2)CC1C (centres unmarked) [Compound 18]")
374
>>> measured_result("CC(=O)N1c2ccccc2C(Nc2ccc(CC(=O)O)cc2)CC1C (centres unmarked) [Compound 71]")
150
>>> measured_result("CC(=O)N1c2ccccc2[C@H](Nc2ccccc2F)C[C@@H]1C (relative stereo) [Compound 22]")
383
>>> measured_result("CC(=O)N1c2cc(F)ccc2[C@H](Nc2cccc(F)c2)C[C@@H]1C (relative stereo) [Compound 58]")
107
>>> measured_result("CCOC(=O)c1ccc2c(c1)C(Oc1ccc(F)cc1)CC(C)N2C(C)=O (centres unmarked) [Compound 53]")
307

[ask] K562 cells, human proerythroblast cells / activity at 6 µM / CC(=O)N1c2ccc(Br)cc2C(Nc2ccccc2)CC1C (centres unmarked) [Compound 13] : value?
[reply] 365

====

# System: K562 cells, human proerythroblast cells
# Test Description: Hemoglobin production in K562 cells (fluorescence of the porphyrin ring)
# Assay type: cell-based
# Experimental Parameters: 144 h, test compound 6 μM, 3+3 days, non-stimulated state = 100%, read-out: production amount of hemoglobin, % of control (6 μM)
Measured Property: activity at 6 µM (%)
One number for each entry, in %.

Take a look at these entries with their results.
>>> measured_result("CC(=O)N1c2ccccc2[C@H](Oc2ccc(OCc3ccccc3)cc2)C[C@@H]1C (relative stereo)")
113
>>> measured_result("CC(=O)N1c2ccccc2C(Nc2ccccc2)CC1C (centres unmarked)")
575
>>> measured_result("CC(=O)N1c2ccc(NCCO)cc2C(Nc2ccc(Cl)cc2)CC1C (centres unmarked)")
325
>>> measured_result("CNC(=O)N1c2ccc(F)cc2C(Nc2ccc(F)cc2)CC1C (centres unmarked)")
461

[ask] # get_value(readout='activity at 6 µM', item= COc1ccccc1NC1CC(C)N(C(C)=O)c2ccccc21 (centres unmarked) )
[reply] 398
